Source of measurements: PubChem BioAssay (NCI)

tested on: HT29 colon; experiment: NCI-60 one-dose screen, 48 h; conditions: 10 µM unless noted
About 83,000 compounds went through this panel and 20% of them were active in at least one assay; those are over-represented in the sample as a whole. Active and inactive are the calls of the source. The calls were made as follows: active = growth percent below 10; inactive = the rest.
Parameter call: string, one of TRUE = active, FALSE = inactive

Please review the entries below; each comes with its answer.
compound=O=C1C=Cc2ccccc2/C1=C/c1[nH]c(=O)[nH]c1O assigned_class=FALSE
compound=OCCOc1ccc(-c2cc(-c3ccccn3)nc(-c3ccccn3)c2)cc1 assigned_class=TRUE
compound=NC(=O)N1CCOCC1 assigned_class=FALSE
compound=COc1ccc(C(=O)C(=O)c2ccccc2)cc1 assigned_class=FALSE
compound="CC(=O)C1C(=O)C(=O)N(c2cccc([N+](=O)[O-])c2)C1=O (stereo not drawn)" assigned_class=FALSE
compound=COc1ccc(C)cc1NC(=O)SC(C)C assigned_class=FALSE
compound=COc1ccc2c(Cl)cc(NC(=O)Nc3c(C)cccc3C)nc2c1 assigned_class=FALSE
compound=CCCCCCCCCCC(=O)CCCCCCCCCC assigned_class=FALSE
compound=CCCOCc1cn[nH]n1 assigned_class=FALSE
compound=Cc1ccc(S(N)(=O)=O)cc1Cl assigned_class=FALSE

Task: Which outcome did this test record for the compound Cc1ccccc1NC(=O)Oc1ccc(Cl)cc1C(=O)c1ccccc1 ?
Result: FALSE

Task: Which outcome did this test record for the compound c1ccc(Oc2c3ccccc3nc3ccccc23)cc1 ?
Result: TRUE

Task: Which outcome did this test record for the compound Cn1c(=O)c2[nH]c(CCCCC(=O)O)nc2n(C)c1=O ?
Result: FALSE

Task: Which outcome did this test record for the compound Cc1cccc(-[n+]2noc(N)n2)c1 ?
Result: FALSE
